Tested on: Jurkat cells
Assay: early O2− (ROS) response, 1 h
Type: cell-based
Details: 1 h; read-out: ROS EC50 (μM), Jurkat cells
reportedProperty: EC50 (µM)
All answers are understood in µM, so give the number only.

Give the measured EC50 for CN1C(=O)CN=C(c2ccc(Cl)cc2)c2cc(Cl)ccc21
230

====

System: Jurkat cells
Assay: early O2− (ROS) response, 1 h
Assay type: cell-based
Details: Homo sapiens, Jurkat, 1 h, read-out: ROS EC50 (μM), Jurkat cells
reportedProperty: EC50 (µM)
All answers are understood in µM, so give the number only.

Give the measured EC50 for CN1C(=O)C(Cc2ccc3ccccc3c2)N=C(c2ccc(O)cc2)c2cc(Cl)ccc21 (centres unmarked) [Bz-423]
10
